The reported numbers originate from patent US20230265187A1.

- target_under_test: T1, His-tagged cynomolgus monkey TIGIT (Acro Biosystems #TIT-05223) (cynomolgus monkey, UniProt A0A7N9I9V4 89-209)
- T1 construct: Bought protein; also called cyno TIGIT; cynomolgus TIGIT; not shown: His tag
- assay_notes: SPR (Carterra LSA), scFv-Fc captured, His-TIGIT analyte; repeat
measured_endpoint: Kd (pM)
Report only the number, with the unit pM understood.

Kd reading for 43586p1.2.G4 (scFv, V domains shown) VH: EVQLLESGGGLVQPGGSLRLSCAASGFTFDDYVMSWVRQAPGKGLEWVSLINWNGDKTYYADSVKGRFTISRDNSKNTLYLQMNSLRAEDTAVYYCARHWIVFQYGLDVWGQGTTVTVSS VL: QSVLTQPLSASGTPGQRVTISCSGVSSNIEIKYVSWYQQLPGTAPKLLIYNSHQRPSGVPDRFSGSKSGTSASLAISGLQSEDEADYYCTSWDDRLKSWVFGGGTKLTVL : 582
